SUBJECT OF TEST: UBE2V2 1-145 UQ_con (domain begin residue: 1, domain end residue: 145), Q15819
Sequence (Q15819 whole entry): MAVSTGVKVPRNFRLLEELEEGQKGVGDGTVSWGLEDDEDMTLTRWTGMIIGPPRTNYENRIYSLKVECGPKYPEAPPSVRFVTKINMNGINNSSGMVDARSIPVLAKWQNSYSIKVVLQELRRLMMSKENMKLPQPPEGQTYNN
TEST DETAILS: phage ELISA signal ratio (GST-PRM binding over GST background); higher = stronger binding of peptide-phage to the PRM
Recorded phage ELISA signal ratio, one value per entry.

YIDYTFFEDGYYRVIE : 5.72

Could you tell me which phage ELISA signal ratio is on file for TNSMPQWAQSQLAMYR ?
21.3

Can you share its phage ELISA signal ratio? I mean this binder: QVGWWMELDHPFWWHQ
8.59

Recorded phage ELISA signal ratio of FEHLEYSHPYLWEMYF , please.
5.45
